molecular target: hP2X7 (Homo sapiens); construct: expressed in transfected cells; host or cells: 1321N1 astrocytoma cells; experiment: P2X7 antagonism: ligand-induced Ca2+ flux in 1321N1 astrocytoma cells overexpressing hP2X7; assay type: cell-based; conditions: pIC50 = -log(IC50), read-out: hP2RX7pIC50 (mean pIC50 values) (converted)
Sequence (Q99572 whole entry): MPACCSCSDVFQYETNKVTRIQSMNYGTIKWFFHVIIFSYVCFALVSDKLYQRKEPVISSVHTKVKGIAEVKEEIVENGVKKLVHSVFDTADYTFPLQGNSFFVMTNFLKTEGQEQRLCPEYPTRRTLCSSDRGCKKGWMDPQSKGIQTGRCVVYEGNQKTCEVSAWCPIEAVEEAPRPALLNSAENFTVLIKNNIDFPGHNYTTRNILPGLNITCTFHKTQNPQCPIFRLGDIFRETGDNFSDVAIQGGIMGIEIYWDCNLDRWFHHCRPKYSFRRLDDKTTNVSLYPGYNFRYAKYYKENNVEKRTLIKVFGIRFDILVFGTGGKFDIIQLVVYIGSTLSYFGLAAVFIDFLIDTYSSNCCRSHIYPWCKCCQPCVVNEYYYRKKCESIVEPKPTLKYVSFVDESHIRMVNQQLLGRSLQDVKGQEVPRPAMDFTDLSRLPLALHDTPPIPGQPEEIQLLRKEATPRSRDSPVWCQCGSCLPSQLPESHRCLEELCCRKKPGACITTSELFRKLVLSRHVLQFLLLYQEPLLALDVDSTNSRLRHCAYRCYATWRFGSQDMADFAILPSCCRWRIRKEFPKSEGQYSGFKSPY
METRIC: log10(IC50) (log10 of the value in nM)
Could you please treat all values as log10 of IC50 in nM?

Value of measured log10(IC50) for the entry O=C(NCC(c1cnc(NC2CC2)nc1)N1CCC(F)(F)CC1)c1cccc2nc(N3CCOCC3)ccc12 (stereo not drawn) [Compound 189] : 2.04

Value of measured log10(IC50) for the entry CCc1ncc(C(CNC(=O)c2cccc3nc(NCC4CC4)ccc23)N2CCOCC2)cn1 (stereo not drawn) [Compound 296] : 2.09

Value of measured log10(IC50) for the entry CC(C)Oc1ncc(C(CNC(=O)c2cccc3nc(N4CCN(C(C)C)CC4)ccc23)N2CCC(F)(F)CC2)cn1 (stereo not drawn) [Compound 306] : 1.67

Value of measured log10(IC50) for the entry O=C(NCC(c1cnc(OC2CCC2)nc1)N1CCC(F)(F)CC1)c1cccc2nc(NC3CC3)ccc12 (stereo not drawn) [Compound 214] : 1.53

Value of measured log10(IC50) for the entry O=C(NCC(c1cnc(C(F)(F)F)nc1)N1CCCC(F)(F)C1)c1cccc2nc(N3CCNCC3)ccc12 (stereo not drawn) [Compound 127] : 1.15

Value of measured log10(IC50) for the entry O=C(NCC(c1cnc(OC2CCC2)nc1)N1CCC(F)(F)CC1)c1cccc2nc(NCC3CC3)ccc12 (stereo not drawn) [Compound 294] : 1.83

Value of measured log10(IC50) for the entry O=C(NCC(c1cnc(NC2CC2)nc1)N1CCC(F)(F)CC1)c1cccc2nc(N3CCCC3)ccc12 (stereo not drawn) [Compound 216] : 2.00

Value of measured log10(IC50) for the entry CCc1ncc(C(CNC(=O)c2cccc3nc(NC4CC4)ccc23)N2CCOCC2)cn1 (stereo not drawn) [Compound 207] : 2.14

Value of measured log10(IC50) for the entry CCOc1ccc2c(C(=O)NCC(c3cnc(C)nc3)N3CCOCC3)cccc2n1 (stereo not drawn) [Compound 121] : 2.40

Value of measured log10(IC50) for the entry O=C(NCC(c1cnc(OCC2CC2)nc1)N1CCC(F)(F)CC1)c1cccc2nc(NCC3CC3)ccc12 (stereo not drawn) [Compound 234] : 1.43

Value of measured log10(IC50) for the entry COc1ccc2c(C(=O)NCC(c3cnc(C(F)(F)F)nc3)N3CCC(F)(F)CC3)cccc2n1 (stereo not drawn) [Compound 41] : 1.66

Value of measured log10(IC50) for the entry O=C(NCC(c1cnc(C(F)(F)F)nc1)N1CCCOCC1)c1cccc2nc(N3CCNCC3)ccc12 (stereo not drawn) [Compound 128] : 1.67

Value of measured log10(IC50) for the entry O=C(NCC(c1cnc(N2CCCC2)nc1)N1CCOCC1)c1cccc2nc(N3CCCC3)ccc12 (stereo not drawn) [Compound 219] : 2.10

Value of measured log10(IC50) for the entry O=C(NCC(c1cnc(N2CCOCC2)nc1)N1CCC(F)(F)CC1)c1cccc2nc(NCC3CC3)ccc12 (stereo not drawn) [Compound 252] : 1.69

Value of measured log10(IC50) for the entry Cc1ncc(C(CNC(=O)c2cccc3nc(N4CCOCC4)ccc23)N2CCOCC2)cn1 (stereo not drawn) [Compound 122] : 2.06

Value of measured log10(IC50) for the entry O=C(NCC(c1ccc(Br)nc1)N1CCC(F)(F)CC1)c1cccc2ncccc12 (stereo not drawn) [Compound 2] : 1.33

Value of measured log10(IC50) for the entry CC(C)Oc1ncc(C(CNC(=O)c2cccc3nc(N4CCCC4)ccc23)N2CCC(F)(F)CC2)cn1 (stereo not drawn) [Compound 305] : 2.00

Value of measured log10(IC50) for the entry O=C(NCC(c1ccc(C(F)(F)F)nc1)N1CCC(F)(F)CC1)c1cccc2ncccc12 (stereo not drawn) [Compound 1] : 1.77

Value of measured log10(IC50) for the entry CC(C)N1CCN(c2ccc3c(C(=O)NCC(c4cncnc4)N4CCC(F)(F)CC4)cccc3n2)CC1 (stereo not drawn) [Compound 297] : 1.51

Value of measured log10(IC50) for the entry CC(C)c1ncc(C(CNC(=O)c2cccc3nc(N4CCN(C(C)C)CC4)ccc23)N2CCOCC2)cn1 (stereo not drawn) [Compound 288] : 2.13

Value of measured log10(IC50) for the entry O=C(NCC(c1cnc(-c2ccccc2)nc1)N1CCOCC1)c1cccc2nc(N3CCOCC3)ccc12 (stereo not drawn) [Compound 315] : 1.63

Value of measured log10(IC50) for the entry CCc1ncc(C(CNC(=O)c2cccc3nc(N4CCN(C(C)C)CC4)ccc23)N2CCOCC2)cn1 (stereo not drawn) [Compound 295] : 2.32

Value of measured log10(IC50) for the entry O=C(NCC(c1cnc(C2CCCC2)nc1)N1CCOCC1)c1cccc2nc(N3CCOCC3)ccc12 (stereo not drawn) [Compound 314] : 2.18

Value of measured log10(IC50) for the entry O=C(NCC(c1cnc(C(F)(F)F)nc1)N1CCC(F)(F)CC1)c1cccc2nc(N3CCNCC3)ccc12 (stereo not drawn) [Compound 78] : 1.41

Value of measured log10(IC50) for the entry Nc1ncc(C(CNC(=O)c2cccc3nc(N4CCCC4)ccc23)N2CCC(F)(F)CC2)cn1 (stereo not drawn) [Compound 226] : 2.21

Value of measured log10(IC50) for the entry CCOc1ncc(C(CNC(=O)c2cccc3nc(N4CCN(C(C)C)CC4)ccc23)N2CCC(F)(F)CC2)cn1 (stereo not drawn) [Compound 298] : 1.66

Value of measured log10(IC50) for the entry Cc1ncc(C(CNC(=O)c2cccc3nc(NCCCO)ccc23)N2CCC(F)(F)CC2)cn1 (stereo not drawn) [Compound 132] : 1.80

Value of measured log10(IC50) for the entry O=C(NCC(c1cnc(C(F)(F)F)nc1)N1CCOCC1)c1cccc2nc(N3CCCC3)ccc12 (stereo not drawn) [Compound 162] : 1.66

Value of measured log10(IC50) for the entry O=C(NCC(c1ccc(C(F)(F)F)nc1)N1CCC(F)(F)CC1)c1cccc2ncccc12 (single isomer, unassigned) [Compound 11] : 1.72

Value of measured log10(IC50) for the entry CC(C)c1ncc(C(CNC(=O)c2cccc3nc(NCC4CC4)ccc23)N2CCC(F)(F)CC2)cn1 (stereo not drawn) [Compound 258] : 1.65
